# target or system: human Caspase 2 (CASP2), CASP2 (gene 835) (UniProt P42575)
# Sequence (P42575 whole entry, looked up): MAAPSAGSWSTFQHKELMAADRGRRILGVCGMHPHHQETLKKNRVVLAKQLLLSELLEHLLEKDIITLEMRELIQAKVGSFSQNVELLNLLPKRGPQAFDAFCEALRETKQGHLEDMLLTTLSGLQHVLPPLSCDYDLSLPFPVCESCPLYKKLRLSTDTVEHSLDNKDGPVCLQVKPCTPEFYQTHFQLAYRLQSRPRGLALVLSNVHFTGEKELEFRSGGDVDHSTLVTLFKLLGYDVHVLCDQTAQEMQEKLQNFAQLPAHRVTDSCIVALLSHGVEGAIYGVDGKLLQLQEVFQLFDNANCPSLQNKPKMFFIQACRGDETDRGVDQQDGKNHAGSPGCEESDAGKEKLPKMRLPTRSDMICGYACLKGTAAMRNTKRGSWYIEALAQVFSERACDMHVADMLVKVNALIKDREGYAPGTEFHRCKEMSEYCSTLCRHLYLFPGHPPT
# assay comment: NVS_ENZ_hCASP2: NovaScreen (NVS) Enzymatic Assay for human Caspase 2 (CASP2) (AID 2283135)
Inconclusive results are not listed. Activity calls are given as the source filed them. Rule for the calls: active = hit-call score of the fitted dose curve at least 0.9, where 1 is the maximum; inconclusive = response in the unintended direction; inactive = score below 0.9.
API: response.call in YES for active, NO for inactive

| molecule | category |
| --- | --- |
| C[C@@H](Oc1ccc(CNC(=O)c2cccnc2Oc2ccc3c(c2)OCO3)c(F)c1)C(=O)O | NO |
| COC(=O)CC(=O)OC | NO |
| COc1ccc2cc(S(=O)(=O)N[C@H](CC(=O)N[C@H](Cc3ccc(CN4[C@H](C)CCC[C@@H]4C)cc3)C(=O)N(C)C(C)C)c3ccc4c(c3)OCO4)ccc2c1 | NO |
| Cc1c(-c2cccnc2)c2ccccc2n1CCCCC(=O)O | NO |
| c1ccc(Nc2ccccc2)cc1 | NO |

What outcome does the record of this test show for "CCc1cccc(CC)c1N" ?
NO

And then "S=C(S)NCCNC(=S)S.[Mn+2].[S-]C([S-])=NCCN=C([S-])[S-].[Zn+2]" , what is it?
NO

And then COCC(C)OCC(C)OCC(C)O (stereo unspecified) , what is it?
NO

And then "CN(C)c1ccc(C(=C2C=CC(=[N+](C)C)C=C2)c2ccc(N(C)C)cc2)cc1" , what is it?
YES

And then "O=[N+]([O-])c1ccc(O)cc1" , what is it?
NO

And then "CSc1ccc(Oc2ccc(S(N)(=O)=O)cc2CN(C)C)cc1C" , what is it?
NO

----------
# assay comment: TOX21_p53_BLA_p2_viability: Viability Assessment in the Tox21 HCT-116 p53 Agonism Beta-lactamase Assay, Phase 2 (AID 2283591);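 note: compound exposure lasted 16 h at 37 °C; actives lower the ATP signal meaning cytotoxicity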
Results filed as inconclusive are left out. Active and inactive are the calls of the source. The calls were made as follows: active = hit-call score of the fitted dose curve at least 0.9, where 1 is the maximum; inconclusive = response in the unintended direction; inactive = score below 0.9.
API: response.call in active, inactive

Some solved entries appear below for comparison.
| compound | category |
| --- | --- |
| ClCc1ccc(Cl)cc1Cl | inactive |
| CC[n+]1c(-c2ccccc2)c2cc(N)ccc2c2ccc(N)cc21 | inactive |
| CC(Oc1ccc(Oc2ncc(C(F)(F)F)cc2Cl)cc1)C(=O)O (stereo not given) | inactive |
| Oc1ccc(Cl)c(Cl)c1 | inactive |
| O=[N+]([O-])c1cc(I)c(O)c(I)c1 | active |
| CCCCC(=O)Cl | inactive |
| COc1ccc2c(c1OC)C(=O)O[C@@H]2[C@H]1c2cc3c(cc2CCN1C)OCO3 | inactive |
| c1ccc2c(c1)cc1ccc3cccc4ccc2c1c34 | inactive |

What outcome does the record of this test show for "CC1CCCC1.[C-]#[O+].[C-]#[O+].[C-]#[O+].[Mn]" ?
inactive

And then "CN1CC[C@]23c4c5ccc(O)c4O[C@H]2[C@@H](O)C=C[C@H]3[C@H]1C5" , what is it?
inactive

And then "Nc1ccc(Cc2ccc(N)c(Cl)c2)cc1Cl" , what is it?
inactive

And then "CCOP(=S)(OCC)Oc1cnc2ccccc2n1" , what is it?
inactive

And then "O=[N+]([O-])c1cc(Cl)c(Cl)c(Cl)c1" , what is it?
inactive

And then "O=[N+]([O-])c1ccc(Oc2ccc(C(F)(F)F)cc2[N+](=O)[O-])cc1" , what is it?
inactive

And then "c1ccc(CN2CCNCC2)cc1" , what is it?
inactive

----------
# assay comment: ATG_PXRE_CIS: Attagene CIS-FACTORIAL HepG2 Assay for human Pregnane X Receptor Element (PXRE) (AID 2282957)
# conditions used: HepG2 Attagene CIS-FACTORIAL PXRE reporter, mRNA; actives raise or lower the signal
Calls of active or inactive are those of the source. The calls were made as follows: active = hit-call score of the fitted dose curve at least 0.9, where 1 is the maximum; inactive = score below 0.9.
API: response.call in active, inactive

Some solved entries appear below for comparison.
| compound | category |
| --- | --- |
| COc1cc(OC)c(OC)cc1C=O | active |
| Nc1ccc(Cl)c(Cl)c1 | inactive |

Pending compound:
What outcome does the record of this test show for CC(C)(C)C(O)C(Oc1ccc(-c2ccccc2)cc1)n1cncn1 (stereo unspecified) ?
active

----------
# target or system: Cellular tumor antigen p53 (Homo sapiens) (UniProt P04637)
# Sequence (P04637 whole entry, looked up): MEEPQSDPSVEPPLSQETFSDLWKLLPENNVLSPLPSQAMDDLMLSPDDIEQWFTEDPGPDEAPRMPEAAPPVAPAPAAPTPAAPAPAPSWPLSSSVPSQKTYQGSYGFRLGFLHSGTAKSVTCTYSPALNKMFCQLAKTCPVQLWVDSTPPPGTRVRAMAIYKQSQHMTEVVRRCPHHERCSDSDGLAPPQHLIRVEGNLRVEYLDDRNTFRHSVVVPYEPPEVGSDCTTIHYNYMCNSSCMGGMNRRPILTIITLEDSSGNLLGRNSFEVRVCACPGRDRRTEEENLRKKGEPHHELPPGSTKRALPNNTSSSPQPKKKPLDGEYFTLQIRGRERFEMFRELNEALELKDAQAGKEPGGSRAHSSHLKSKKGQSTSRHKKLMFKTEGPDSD
# assay comment: TOX21_p53_BLA_p4_ratio: Tox21 HCT-116 p53 Agonism Beta-lactamase Assay, Ratio, Phase 4 (AID 2283601)
# Description: TOX21_p53_BLA_p4 is a cell-based, single-readout assay that uses HCT116, a human intestinal cell line, […] in a 1536-well plate.TOX21_p53_BLA_p4_ratio is an assay readout measuring reporter gene via receptor activity and designed using inducible reporter (beta lactamase induction) detected with GAL4 b-lactamase reporter gene. […] This assay endpoint, TOX21_p53_BLA_p4_ratio, was analyzed in the positive analysis fitting direction relative to DMSO as the negative control and baseline of activity. […]
Results filed as inconclusive are left out. Calls of active or inactive are those of the source. The calls were made as follows: active = hit-call score of the fitted dose curve at least 0.9, where 1 is the maximum; inconclusive = response in the unintended direction; inactive = score below 0.9.
measure: AC50

As a guide, the following entries are already answered.
| compound | measure | result |
| --- | --- | --- |
| CN[C@@H](C)[C@H](O)c1ccccc1 | AC50 | inactive |
| COP(=S)(OC)Oc1ccc([N+](=O)[O-])cc1Cl | AC50 | inactive |
| CC(Cc1ccc(C(C)(C)C)cc1)CN1C[C@@H](C)O[C@@H](C)C1 (stereo partly drawn) | AC50 | inactive |
| CCCCCc1cc(O)c2c(c1)OC(C)(C)c1ccc(C)cc1-2 | AC50 | 29.9 µM (active) |
| CN(C)c1ccc(N)cc1 | AC50 | inactive |
| NCCOS(=O)(=O)O | AC50 | inactive |
| O=P1(N(CCCl)CCCl)NC(OO)CCO1 (stereo not drawn) | AC50 | inactive |
| CC(=O)C(Cl)(Cl)Cl | AC50 | inactive |
| CON(C)C(=O)Nc1ccc(Br)cc1 | AC50 | inactive |
| CC(C)(C)NCC(O)c1ccccc1Cl (stereo not drawn) | AC50 | inactive |

Tell me the measured AC50 of CCC(C)c1cc([N+](=O)[O-])cc([N+](=O)[O-])c1OC(=O)C=C(C)C (stereo not drawn) , please.
14.3 µM (active)

And then "CC[N+](C)(CC)CCOC(=O)C(O)(c1ccccc1)c1ccccc1" , what is it?
inactive

And then "C=C(Cl)Cl" , what is it?
inactive

----------
# assay comment: BSK_MyoF_SRB: Viability Assessment in the BioMAP Diversity Plus: MyoF Assay (AID 2284267);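 note: total protein by SRB absorbance in parallel cultures as cytotoxicity measure; cells assessed 24 h after compound addition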
# conditions used: primary human lung fibroblasts
Activity calls are given as the source filed them. Rule for the calls: active = hit-call score of the fitted dose curve at least 0.9, where 1 is the maximum; inactive = score below 0.9.
API: response.call in active, inactive

Some solved entries appear below for comparison.
| molecule | category |
| --- | --- |
| Oc1cc(Cl)ccc1Cl | inactive |
| O=[N+]([O-])C=Cc1ccccc1 | active |
| C=CC(=O)OCC(CC)CCCC (configuration not stated) | inactive |
| COC(C)(C)CCC[C@H](C)C/C=C/C(C)=C/C(=O)OC(C)C | inactive |

What outcome does the record of this test show for O=P1(NCCCl)OCCCN1CCCl (configuration not stated) ?
inactive

And then "COCC(=O)N(c1c(C)cccc1C)N1CCOC1=O" , what is it?
inactive

And then CCC(C)c1cc([N+](=O)[O-])cc([N+](=O)[O-])c1OC(=O)C=C(C)C (configuration not stated) , what is it?
active

----------
# target or system: Bile acid receptor (Homo sapiens) (UniProt Q96RI1)
# Sequence (Q96RI1 whole entry, looked up): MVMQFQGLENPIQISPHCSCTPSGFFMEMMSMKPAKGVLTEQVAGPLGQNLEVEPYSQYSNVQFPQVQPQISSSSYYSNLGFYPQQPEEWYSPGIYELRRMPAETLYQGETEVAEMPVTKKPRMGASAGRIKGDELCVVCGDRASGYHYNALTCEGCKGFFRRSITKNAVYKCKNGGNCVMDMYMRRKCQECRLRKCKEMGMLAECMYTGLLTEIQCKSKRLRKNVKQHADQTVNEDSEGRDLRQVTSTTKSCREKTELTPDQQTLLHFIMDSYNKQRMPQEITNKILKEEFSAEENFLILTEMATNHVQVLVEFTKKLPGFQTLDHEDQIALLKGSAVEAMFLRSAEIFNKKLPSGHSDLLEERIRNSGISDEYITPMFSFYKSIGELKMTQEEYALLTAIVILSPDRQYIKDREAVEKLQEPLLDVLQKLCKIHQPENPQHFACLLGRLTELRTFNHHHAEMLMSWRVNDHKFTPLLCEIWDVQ
# assay comment: ATG_IR1_CIS: Attagene CIS-FACTORIAL HepG2 Assay for human Nuclear Receptor Subfamily 1 Group H Member 4 (NR1H4), IR1 submotif (AID 2282946)
# conditions used: IR1 reporter transcription, actives raise or lower the signal
Active and inactive are the calls of the source. How the source made its calls: active means hit-call score of the fitted dose curve at least 0.9, where 1 is the maximum; inactive means score below 0.9.
API: response.call in T (active), F (inactive)

| compound | category |
| --- | --- |
| O=S(=O)(c1ccccc1)c1ccccc1 | F |
| O=C1C(Cl)=C(Cl)C(=O)C(Cl)=C1Cl | T |
| C[C@]12CC[C@H](O)C[C@H]1CC[C@@H]1[C@@H]2C[C@@H](O)[C@]2(C)[C@@H](C3=CC(=O)OC3)CC[C@]12O | F |
| CCCC=NO | F |
| c1cc(OCC2CO2)ccc1Cc1ccc(OCC2CO2)cc1 (configuration not stated) | T |

What outcome does the record of this test show for "c1ccc(Nc2ccc3ccccc3c2)cc1" ?
F

And then "CC(C)COP(=O)(OCC(C)C)OCC(C)C" , what is it?
F

----------
# Read-out: Interleukin 17A (IL17A), IL17A (gene 3605)
# assay comment: BSK_BT_xIL17A: BioMAP Diversity Plus: BT Assay for Interleukin 17A (IL17A) Biomarker Activity (AID 2284229)
# conditions used: primary human B cells with PBMC
The source made the active and inactive calls. The calls were made as follows: active = hit-call score of the fitted dose curve at least 0.9, where 1 is the maximum; inactive = score below 0.9.
API: response.call in T = active, F = inactive

| mol | category |
| --- | --- |
| Oc1cc(Cl)ccc1Cl | F |

What outcome does the record of this test show for "CC(C)COP(=O)(OCC(C)C)OCC(C)C" ?
F

And then "c1ccc(Nc2ccc3ccccc3c2)cc1" , what is it?
T

And then "O=[N+]([O-])C=Cc1ccccc1" , what is it?
T

And then "Nc1ccc(-c2ccc(N)c(N)c2)cc1N" , what is it?
F
